Entry source: PubChem BioAssay (NCI)

Test system: BT-549 breast
Assay procedure: NCI tumour cell line growth inhibition, 48 h

| Molecule | Modifier | TGI [µM] |
| --- | --- | --- |
| CCC(C)C(N)C(=O)N/N=C\c1c2c(nc3ccccc13)-c1cc3c(c(=O)n1C2)COC(=O)[C@]3(O)CC (stereo partly drawn) | > | 30.2 |
| COc1ccc2c(c1)C(=O)/C(=C/c1cccc(OCC(=O)Nc3nc(C)c(C)s3)c1)O2 | = | 7.63 |
| O=C(N/N=C\c1cccc2ccccc12)Nc1ccccc1 | > | 100 |
| COc1ccc(-c2cnnn2-c2nonc2-n2cccc2)cc1OC | > | 100 |
| Cc1ccc(Cl)cc1N=NC(=O)NNc1cc(Cl)ccc1C | = | 43.9 |
| N#CCCN(CCC#N)c1ccc(/C=C2\N=C(c3ccccc3)N(c3ccc(C(=O)O)cc3)C2=O)cc1 | = | 71.2 |
| N=c1oc2ccccc2cc1-c1nc2ccccc2[nH]1 | = | 87.4 |
| O=c1oc(-c2ccc(O)cc2)cc2cc(O)ccc12 | = | 62.1 |
| Cc1ccc2nc3n[nH]c(N)c3nc2c1 | > | 100 |
| N=c1ccc2nc3ccc(N)cc3sc-2c1 | = | 60.9 |
| COC1(C2c3ccccc3CCN2C(=O)OC(C)(C)C)C(=O)C(c2ccccc2)=C1N(C)C (stereo not drawn) | = | 75 |
| N#CC1=C(N)N(/N=C/c2ccccc2)C(c2ccccc2)C1(C#N)C#N (stereo not drawn) | = | 29.4 |
| C=C1C(=O)O[C@H]2[C@H]1CC/C(Cn1cc(-c3ccc(N)cc3)nn1)=C\CC[C@@]1(C)O[C@@H]21 | = | 11.7 |
| COc1ccc(C2=[S+]C(c3ccccc3)(c3ccccc3)c3ccccc32)cc1 | = | 53.9 |
| N#Cc1c2ccc([N+](=O)[O-])cc2c(=O)n2c1[nH]c1ccc(C(F)(F)F)cc12 | > | 100 |
| CO[C@H]1/C=C/O[C@@]2(C)Oc3c(C)c(O)c4c(O)c(c(/C=N/N5CCN(C)CC5)c(O)c4c3C2=O)NC(=O)/C(C)=C\C=C\[C@H](C)[C@H](O)[C@@H](C)[C@@H](O)[C@@H](C)[C@H](OC(C)=O)[C@@H]1C | > | 100 |
| CC1CN=C(Nc2cccc(F)c2)S1 (stereo not drawn) | > | 100 |
| CC(=O)c1ccc2c(c1)N(CCCN1CCN(CCO)CC1)c1ccccc1S2 | = | 11.9 |
| CC(=O)O[C@H]1CC[C@@]2(C)C(=CC[C@@H]3[C@@H]2CC[C@]2(C)c4c(n[nH]c4C)C[C@@H]32)C1 | = | 32.1 |
| O=C(Nc1cccc2[nH]c(C(F)(F)F)nc12)c1cc(Cl)ccc1Cl | = | 8.14 |
| CC(NC(=O)Cc1ccc(C(F)(F)P(=O)(OCc2ccc([N+](=O)[O-])o2)N(C)CCCCCl)cc1)c1ccc(OCC2CCCCC2)c(C(N)=O)c1 (stereo not drawn) | = | 13.5 |
| CN=C(Nc1ccc(OC)c2ccccc12)SC | > | 10 |
| COc1ccc(C2=NC(=O)NC2c2ccc(OC)cc2)cc1 (stereo not drawn) | = | 29.5 |
